Value source: ChEMBL document CHEMBL6153072

target: Biotin--[acetyl-CoA-carboxylase] ligase (Mycobacterium tuberculosis (strain ATCC 25618 / H37Rv)); test: Binding affinity to Mycobacterium tuberculosis BPL assessed as dissociation constant by isothermal titration calorimetry
Sequence (I6YFP0 whole entry): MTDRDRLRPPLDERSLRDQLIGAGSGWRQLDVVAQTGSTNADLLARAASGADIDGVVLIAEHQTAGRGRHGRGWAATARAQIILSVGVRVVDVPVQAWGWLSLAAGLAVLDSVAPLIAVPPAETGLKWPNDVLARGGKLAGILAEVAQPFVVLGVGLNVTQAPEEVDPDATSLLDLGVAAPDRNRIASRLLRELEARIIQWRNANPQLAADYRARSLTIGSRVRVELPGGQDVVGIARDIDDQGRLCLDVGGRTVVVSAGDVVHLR
Reported property: Kd (nM)
Numeric answer only, unit nM assumed.

Molecule smiles: C[C@@H]1NC(=O)N[C@@H]1CCCCCC(=O)NS(=O)(=O)NC[C@H]1O[C@@H](n2cnc3c(N)cccc32)[C@H](O)[C@@H]1O
Recorded value: 19
--
Molecule smiles: Nc1ncnc2c1ncn2[C@@H]1O[C@H](CNS(=O)(=O)NCCCCC[C@@H]2SC[C@@H]3NC(=O)N[C@@H]32)[C@@H](O)[C@H]1O
Recorded value: 23

Task: Please indicate Kd recorded for `CN(C(=O)CCCC[C@@H]1SC[C@@H]2NC(=O)N[C@@H]21)S(=O)(=O)NC[C@H]1O[C@@H](n2cnc3c(N)ncnc32)[C@H](O)[C@@H]1O`
Result: 120

---

experiment: Cytotoxicity against African green monkey Vero cells; format: toxicity, cell-based, Chlorocebus sabaeus
Reported property: IC50
Hey, just the number and the unit after it is fine.

Task: Please indicate IC50 recorded for `Nc1ncnc2c1ncn2[C@@H]1O[C@H](CNS(N)(=O)=O)[C@@H](O)[C@H]1O`
Result: 6 µM

---

assay: Clearance in female CD-1 mouse at 5 mg/kg, iv administered […] measured after 24 hrs by LC-MS/MS analysis; format: ADME, organism-based; conditions: in vivo
Reported property: clearance (mL/min/kg)
Numeric answer only, unit mL/min/kg assumed.

Previously resolved entries follow.
Molecule: Nc1ncnc2c1ncn2[C@@H]1O[C@H](CNS(=O)(=O)[N-]C(=O)NCCC[C@@H]2SC[C@@H]3NC(=O)N[C@@H]32)[C@@H](O)[C@H]1O.[Na+]
Units text: mL/min/kg
clearance: 7

Molecule: Nc1ncnc2c1ncn2[C@@H]1O[C@H](CNS(=O)(=O)[N-]C(=O)CCCC[C@@H]2SC[C@@H]3NC(=O)N[C@@H]32)[C@@H](O)[C@H]1O.[Na+]
Units text: mL/min/kg
clearance: 58

Please examine the following record next.
Task: Please indicate clearance recorded for CC(CCC[C@@H]1SC[C@@H]2NC(=O)N[C@@H]21)C(=O)[N-]S(=O)(=O)NC[C@H]1O[C@@H](n2cnc3c(N)ncnc32)[C@H](O)[C@@H]1O.[Na+] (stereo partly drawn)
Result: 10

---

target: Biotin--[acetyl-CoA-carboxylase] ligase (Mycobacterium tuberculosis (strain ATCC 25618 / H37Rv)); assay: Binding affinity to Mycobacterium tuberculosis BPL assessed as change in enthalpy by isothermal titration calorimetry
Reported property: deltaH
Hey, just the number and the unit after it is fine.

Molecule smiles: Nc1ncnc2c1ncn2[C@@H]1O[C@H](CNS(=O)(=O)[N-]C(=O)CCCC[C@@H]2SC[C@@H]3NC(=O)N[C@@H]32)[C@@H](O)[C@H]1O.[Na+]
deltaH: -18.9 kcal/mol

Molecule smiles: Nc1ncnc2c1ncn2[C@@H]1O[C@H](CNS(=O)(=O)NC(=O)NCCCCC[C@@H]2SC[C@@H]3NC(=O)N[C@@H]32)[C@@H](O)[C@H]1O
deltaH: -9.9 kcal/mol

Please examine the following record next.
Task: Please indicate deltaH recorded for `C[C@@H]1NC(=O)N[C@@H]1CCCCCC(=O)NS(=O)(=O)NC[C@H]1O[C@@H](n2cnc3c(N)cccc32)[C@H](O)[C@@H]1O`
Result: -13.6 kcal/mol
